Each record here notes measured max % inhibition, Abeta x-40 in mouse cortical neurons.
Target: BACE1 endogenous to primary cortical neurons from E16.5 CD1 mice (mouse, UniProt P56818 46-501)
Sequence (P56818 46-501): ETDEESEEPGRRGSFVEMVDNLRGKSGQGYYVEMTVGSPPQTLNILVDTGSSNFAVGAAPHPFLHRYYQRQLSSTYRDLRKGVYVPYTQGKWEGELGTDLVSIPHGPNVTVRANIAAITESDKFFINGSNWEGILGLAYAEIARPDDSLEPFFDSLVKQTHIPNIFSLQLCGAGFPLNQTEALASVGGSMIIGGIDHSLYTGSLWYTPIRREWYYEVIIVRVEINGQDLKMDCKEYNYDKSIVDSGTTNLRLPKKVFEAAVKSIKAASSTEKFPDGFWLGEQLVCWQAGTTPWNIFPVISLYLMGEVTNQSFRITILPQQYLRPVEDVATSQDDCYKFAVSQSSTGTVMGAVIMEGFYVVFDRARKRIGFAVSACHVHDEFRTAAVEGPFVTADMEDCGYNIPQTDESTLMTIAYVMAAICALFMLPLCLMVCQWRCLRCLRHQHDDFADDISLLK
Experiment: cell-based or functional assay
measureName: max % inhibition, Abeta x-40 in mouse cortical neurons

binder	result
5932 (antibody, V domains shown) VH: QLQLQESGPGLVKPSETLSLTCTVSGGSISRGSYYWGWIRQPPGKGLEWIGMIYYSGSTWYNPSLKSRVTISVDTSKNQFSLKLSSVTAADTAVYYCARVGHGISYFDLWGRGTLVTVSS VL: EIVLTQSPATLSLSPGERATLSCRASQSVSSYLAWYQQKPGQAPRLLIYDASKRATGIPARFSGSGSGTDFTLTISSLEPEDFAVYYCQQVYTWPPRTFGGGTKVEIK	57%
5984 (antibody, V domains shown) VH: QLQLQESGPGLVKPSETLSLTCTVSGGSISSSSYYWGWIRQPPGKGLEWIGNIYYSGSTYYNPSLKGRVTISVDTSKNQFSLKLSSVTAADTAVYYCARLGHGYNYFDLWGRGTLVTVSS VL: EIVLTQSPATLSLSPGERATLSCRASQSVSSYLAWFQQKPGQAPRLLIYDASNRATGIPARFSGSGSGTDFTLTISSLEPEDFAVYYCQQVYVWPPRTFGGGTKVEIK	70%
5986 (antibody, V domains shown) VH: QLQLQESGPGLVKPSETLSLTCTVSGGSISSSSYYWGWIRQPPGKGLEWIGQIYYSGSTFYNPSLKSRVTISVDTSKNQFSLKLSSVTAADTAVYYCARLGHGYSYFDLWGRGTLVTVSS VL: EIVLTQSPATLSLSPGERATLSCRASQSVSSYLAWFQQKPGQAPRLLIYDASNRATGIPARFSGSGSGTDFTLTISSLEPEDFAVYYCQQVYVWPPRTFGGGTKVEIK	67%
6296 (antibody, V domains shown) VH: QLQLQESGPGLVKPSETLSLTCTVSGGSISSSSYYWGWIRQPPGKGLEWIGNIYYSGSTYYNPSLRGRVTISVDTSKNQFSLKLSSVTAADTAVYYCARLGHGYNYFDLWGRGTLVTVSS VL: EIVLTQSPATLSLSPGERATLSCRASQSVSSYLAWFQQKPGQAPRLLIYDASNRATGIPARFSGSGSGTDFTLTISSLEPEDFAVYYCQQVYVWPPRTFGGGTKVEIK	62%
5985 (antibody, V domains shown) VH: QLQLQESGPGLVKPSETLSLTCTVSGGSISSSSYYWGWIRQPPGKGLEWIGNIYYSGSTYYNPSLKSRVTISVDTSKNQFSLKLSSVTAADTAVYYCARLGHGYNYFDLWGRGTLVTVSS VL: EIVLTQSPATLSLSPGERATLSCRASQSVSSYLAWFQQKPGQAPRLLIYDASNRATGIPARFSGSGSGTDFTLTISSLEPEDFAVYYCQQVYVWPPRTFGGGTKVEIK	73%
5982 (antibody, V domains shown) VH: QLQLQESGPGLVKPSETLSLTCTVSGGSISSSSYYWGWIRQPPGKGLEWIGNIYYSGSTYYNPSLKSRVTISVDTSKNQFSLKLSSVTAADTAVYYCARLGHGYSYFDLWGRGTLVTVSS VL: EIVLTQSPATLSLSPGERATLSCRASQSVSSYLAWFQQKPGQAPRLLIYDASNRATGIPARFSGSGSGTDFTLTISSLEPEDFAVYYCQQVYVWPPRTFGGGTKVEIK	71%

Data origin: patent US20210206877A1
